Overview of reported GI50 across a group of compounds:
Test system: HL-60
Test: NCI tumour cell line growth inhibition, 48 h
Activity calls are given as the source filed them. Cut-off read from the data, not from the text of the source: active = GI50 up to about 1.1 µM and inactive = higher.
QUANTITY KIND: GI50

COMPOUND: CC(C)C1(Cl)CCC2C3(C)CCCC(C)(C(=O)O)C3CC(Cl)C2(Cl)C1Cl (stereo unspecified)
QUANTITY KIND: GI50
ENDPOINT VALUE: 22.3 µM (inactive)
--
COMPOUND: NC1=C(Cl)C(=O)c2c(O)ccc(O)c2C1=O
QUANTITY KIND: GI50
ENDPOINT VALUE: 2.55 µM (inactive)
--
COMPOUND: O=C(O)C1CCCN1Cc1cc2ccccc2c2ccccc12 (stereo unspecified)
QUANTITY KIND: GI50
ENDPOINT VALUE: > 100 µM (inactive)
--
COMPOUND: CCN1CN(c2ccccc2)C2(CCN(CCCSc3ccc(F)cc3)CC2)C1=O
QUANTITY KIND: GI50
ENDPOINT VALUE: 10.8 µM (inactive)
--
COMPOUND: CCOC(=O)c1ccc(/C(C)=N/NC(N)=S)cc1
QUANTITY KIND: GI50
ENDPOINT VALUE: > 100 µM (inactive)
--
COMPOUND: COC(=O)C1C(C(=O)OC)C2(OC(c3ccc(Cl)cc3)=CC2=O)C12OC(c1ccc(Cl)cc1)=CC2=O (stereo unspecified)
QUANTITY KIND: GI50
ENDPOINT VALUE: 2.81 µM (inactive)

----------
Overview of reported GI50 across a group of molecules:
Tested on: NCI-H226
Test: NCI tumour cell line growth inhibition, 48 h
Calls of active or inactive are those of the source. Cut-off read from the data, not from the text of the source: active = GI50 up to about 1.1 µM and inactive = higher.

SUBSTANCE SMILES: Cn1c(=O)c2c(ncn2CCCCOc2ccc3c(c2)[n+]([O-])nc(N)[n+]3[O-])n(C)c1=O
ASSAY TARGET: NCI-H226
GI50: 19.4 µM (inactive)

SUBSTANCE SMILES: Cn1c(N2CCCC2)c(C=O)c(=O)n(C)c1=O
ASSAY TARGET: NCI-H226
GI50: 51.8 µM (inactive)

SUBSTANCE SMILES: [O-][n+]1onc2c1-c1nonc1CC2
ASSAY TARGET: NCI-H226
GI50: 36.8 µM (inactive)

SUBSTANCE SMILES: COc1cc2c(oc(=O)c3c4oc([Si](C)(C)C)cc4cc(OC)c23)c2cccc(OCc3ccccc3)c12
ASSAY TARGET: NCI-H226
GI50: 42.5 µM (inactive)

----------
Test system: HOP-62
Assay: NCI tumour cell line growth inhibition, 48 h
Calls of active or inactive are those of the source. No stated cut-off is given here; in the data, active = GI50 up to about 1.1 µM and inactive = higher.

COMPOUND: Cc1cccc(-c2nc3c(C(=O)NCCN(C)C)cccc3[nH]2)c1
GI50: 1.72 µM (inactive)
--
COMPOUND: Cn1cnc(C(N)=[Se])c1N
GI50: 2.46 µM (inactive)
--
COMPOUND: CN(C)c1ccc(/C=C2\C[C@H]3[C@@H]4CC=C5C[C@@H](O)CC[C@]5(C)[C@H]4CC[C@]3(C)[C@H]2O)cc1
GI50: 29.4 µM (inactive)
--
COMPOUND: CCOC1CCN(C(=O)c2ccccc2)O1 (stereo not given)
GI50: > 10 µM (inactive)
--
COMPOUND: O=c1c2cc([N+](=O)[O-])ccc2oc2nc3n(c(=O)c12)CCCS3
GI50: 40.9 µM (inactive)

----------
Test system: HCC 2998
Assay: NCI tumour cell line growth inhibition, 48 h
Active and inactive are the calls of the source. Cut-off read from the data, not from the text of the source: active = GI50 up to about 1.1 µM and inactive = higher.
Overview of reported GI50 across a group of molecules:

MOLECULE: COC(=O)/C=C(\S/C(=N\n1cc(C(=O)OC)c(C(=O)OC)c1-c1ccc(C)cc1)c1ccc(C)cc1)C(=O)OC
ASSAY TARGET: HCC 2998
GI50: 18.7 µM (inactive)
//
MOLECULE: CCOC(=O)NC(=O)c1cn(CCCOC(=O)CCCCCCCCCCC(=O)OCCCn2cc(C(=O)NC(=O)OCC)c(=O)[nH]c2=O)c(=O)[nH]c1=O
ASSAY TARGET: HCC 2998
GI50: > 100 µM (inactive)
//
MOLECULE: CCOC(=O)n1c(=O)nc2c3c(ncn21)Oc1c(c(-c2ccccc2)nn1-c1ccccc1)C3c1ccc(Cl)cc1 (centres undefined)
ASSAY TARGET: HCC 2998
GI50: 0.631 µM (active)
//
MOLECULE: COC(=O)C1=C(C)C(=O)C2(CCCCCC2C(=O)OC)C1 (centres undefined)
ASSAY TARGET: HCC 2998
GI50: > 100 µM (inactive)
//
MOLECULE: CCc1cccc(C(C)C)c1NC(=O)/C(=N\NC(N)=O)C(C(=O)OC)c1cnc2ccccc2n1 (centres undefined)
ASSAY TARGET: HCC 2998
GI50: 40.6 µM (inactive)
//
MOLECULE: CCN(CC)CCC1CCCCN1CC(=O)N1c2ccccc2NC(=O)c2ccccc21 (centres undefined)
ASSAY TARGET: HCC 2998
GI50: > 100 µM (inactive)
//
MOLECULE: Cc1cc(Cl)ccc1NC(=O)C(=O)Cc1nc2ccccc2o1
ASSAY TARGET: HCC 2998
GI50: > 100 µM (inactive)
//
MOLECULE: Cc1ccc(S(=O)(=O)N/N=C/C(C)C)cc1
ASSAY TARGET: HCC 2998
GI50: > 100 µM (inactive)
//
MOLECULE: O=C(Nc1nnc(S)[nH]1)C(=O)C(C(=O)c1ccc2ccccc2c1)C1OC(=O)c2ccccc21 (centres undefined)
ASSAY TARGET: HCC 2998
GI50: 11.5 µM (inactive)

----------
System: OVCAR-3
Assay: NCI tumour cell line growth inhibition, 48 h
Active and inactive are the calls of the source. Cut-off read from the data, not from the text of the source: active = GI50 up to about 1.1 µM and inactive = higher.
Outcome codes: true (1) (active), false (0) (inactive)

MOLECULE: O=[N+]([O-])c1ccc(-c2noc(-c3ccc(Cl)cc3)c2C2=NCCN2)cc1
LABEL CLASS: false (0)
--
MOLECULE: CC(=O)OCCc1cccnc1/C=N/O
LABEL CLASS: false (0)
--
MOLECULE: COc1cccc(-c2nc(-c3cnccn3)n(C3OC(CO)C(O)C3O)n2)c1 (stereo not given)
LABEL CLASS: false (0)
--
MOLECULE: c1cncc(CSc2ncnc3[nH]cnc23)c1
LABEL CLASS: false (0)
--
MOLECULE: Cc1nn2c(C(=O)N/N=C/c3ccccc3O)c(C)nc2s1
LABEL CLASS: false (0)
--
MOLECULE: CC(=O)c1c(O)ccc2c1c1c(n2C)C(=O)c2ccccc2C1=O
LABEL CLASS: false (0)
--
MOLECULE: Cc1cccc2c(NCCCN(C)C)c3c([N+](=O)[O-])ccc(C)c3nc12
LABEL CLASS: true (1)
--
MOLECULE: CO[C@@H]1[C@H](O)CC[C@]2(CO2)[C@H]1[C@@]1(C)O[C@@H]1CC=C(C)C
LABEL CLASS: false (0)
--
MOLECULE: O=C(/C=C/c1ccccc1)CSc1nc[nH]n1
LABEL CLASS: false (0)
--
MOLECULE: CCCc1cc2c(cc1O)CC[C@@H]1[C@@H]2CC[C@]2(C)[C@@H](O)CC[C@@H]12
LABEL CLASS: false (0)
--
MOLECULE: CC(=O)/N=C1\N/C(=C/c2cc([N+](=O)[O-])ccc2O)CN1C
LABEL CLASS: false (0)
--
MOLECULE: CCCC1(CCC)c2cc(/C=N\O)ccc2-c2ccc(-c3ccc(C(C)(C)C)cc3)cc21
LABEL CLASS: false (0)
--
MOLECULE: COc1cc(O)c(C(=O)/C=C/c2ccc(OC)c(OCc3ccccc3)c2)c(OC)c1
LABEL CLASS: false (0)
--
MOLECULE: NC(=O)NC(=O)CCC(NS(=O)(=O)c1ccccc1)C(=O)NC(N)=O (stereo not given)
LABEL CLASS: false (0)
--
MOLECULE: CC[C@]1(Cc2ccc(OC)c(OC)c2)C=[N+]([O-])O[C@H](OC2CCCC2(c2ccccc2)c2ccccc2)[C@@H]1OC(=O)C(C)(C)C (stereo not given in full)
LABEL CLASS: false (0)
--
MOLECULE: Cc1ccccc1/N=N/c1c(O)ccc2ccccc12
LABEL CLASS: false (0)
--
MOLECULE: O=C1C[C@@H](c2ccc(O)cc2)[C@@]2(O1)C(=O)O[C@H]([C@@H](O)CO)[C@@H]2O
LABEL CLASS: false (0)
--
MOLECULE: CC(=O)NC1C(OCc2ccccc2)OC(CO)C(O)C1OC(C)C(=O)NC(C)C(=O)NC(CCC(=O)NCCCCNc1c2ccccc2nc2cccc([N+](=O)[O-])c12)C(N)=O (stereo not given)
LABEL CLASS: true (1)
--
MOLECULE: CC1=CC(=O)C(=O)C2=C1OC1(C2)C(C)CCC2C3(C)CCC(O)C(C)(C)C3CCC21C (stereo not given)
LABEL CLASS: false (0)
--
MOLECULE: Cc1cc(NS(=O)(=O)c2ccc(NC(=O)c3cccc4c(=O)c5ccccc5[nH]c34)cc2)no1
LABEL CLASS: false (0)
